molecular target: T1, human δ opioid receptor (human, UniProt P41143 1-372); assay: competition vs [3H]DPDPE, membranes of hDOR-transfected HN9.10 cells
T1 construct: whole, on cells; Assayed as membrane preparations of transfected cells; also called hDOR; DOR
T1 sequence (P41143 whole entry, stated change not applied): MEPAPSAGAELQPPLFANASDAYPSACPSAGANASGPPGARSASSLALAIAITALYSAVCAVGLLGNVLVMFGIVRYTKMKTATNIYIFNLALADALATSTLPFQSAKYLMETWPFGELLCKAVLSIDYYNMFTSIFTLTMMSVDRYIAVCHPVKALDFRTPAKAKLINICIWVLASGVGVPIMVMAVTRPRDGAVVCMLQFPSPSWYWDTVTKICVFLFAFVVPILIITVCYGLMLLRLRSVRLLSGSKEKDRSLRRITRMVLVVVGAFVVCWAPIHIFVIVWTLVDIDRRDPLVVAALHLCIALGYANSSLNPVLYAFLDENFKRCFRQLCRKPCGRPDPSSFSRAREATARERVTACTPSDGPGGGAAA
Square brackets hold non-standard residues; d marks the D form. * marks the point of attachment. OBzl(3,5-(CF3)2) = FC(F)(F)c1cc(CO*)cc(C(F)(F)F)c1; NHBn = c1ccc(CN*)cc1
quantityMeasured: pKi
API: returns pKi as number; meaning -log10 of concentration in mol/L.

H-Y[dA]GFMPLW-{OBzl(3,5-(CF3)2)} (also: TFA salt, TFA salt; also called TY005; TY5) [H-Tyr-D-Ala-Gly-Phe-Met-Pro-Leu-Trp-O-3,5-Bzl(CF3)2]; 8.55

// below: pKi requested for another binder
Which pKi value belongs to H-Y[dA]GFMPLW-NHBn (also: TFA salt, TFA salt; also called TY025) [H-Tyr-D-Ala-Gly-Phe-Met-Pro-Leu-Trp-NH-Bzl] ? 9.36
